- Test system: rodent lifetime carcinogenesis bioassay, tumor incidence TD50
- measurementDescription: carcinogenic potency in animals, long-term in vivo studies, CPDB compilation (AID 1745844)
- runParameters: rat; strain Fischer 344; males; in feed; site: skin + subcutaneous tissue; lesion: basal-cell carcinoma + squamous-cell carcinoma + squamous-cell papilloma; dosed 78 weeks; study length 106 weeks
reportedEndpoint: TD50

Query string: Identify the measured TD50 of CCn1c2ccccc2c2cc(N)ccc21 for rodent lifetime carcinogenesis bioassay, tumor incidence TD50.
Result string: 203 mg/kg/day

###

- System: rodent lifetime carcinogenesis bioassay, tumor incidence TD50
- measurementDescription: carcinogenic potency in animals, long-term in vivo studies, CPDB compilation (AID 1745844)
- runParameters: mouse; strain Swiss; females; in feed; site: forestomach; lesion: papilloma; dosed 33 weeks; study length 52 weeks
reportedEndpoint: TD50

Query string: Identify the measured TD50 of O=CNNc1nc(-c2ccc([N+](=O)[O-])o2)cs1 for rodent lifetime carcinogenesis bioassay, tumor incidence TD50.
Result string: 13.8 mg/kg/day
